Test system: U937
Assay: Secondary dose-response HTS, Cell Titer Glo
Assay type: cell-based, human
Settings: Homo sapiens, U-937, read-out: average effective concentration, U937
assay-metric: EC50

[
  {
    "chemical-structure": "C=C1C(=O)O[C@@H]2C[C@@H](C)[C@@H]3C=CC(=O)[C@@]3(C)[C@@H](O)[C@H]12",
    "experimental-value": "170 nM"
  }
]

* * *

Test system: CMK
Design: species or system AML cell lines (8); Primary HTS, single concentration about 10 uM, Cell Titer Glo viability; log10 luminescence, per cent inhibition relative to cycloheximide control
Conditions: 72 h, relative to cycloheximide control, log10 luminescence; inhibitor
Structures can show the parent of a compound that is named as a salt.
Recorded measurements of CMK %inh, one per entry

[
  {
    "compound": "COc1cc2c(cc1OC)C(=O)C(CC1CCN(Cc3ccccc3)CC1)C2 (stereo not drawn) [SJ000555704-1, DONEPEZIL HYDROCHLORIDE]",
    "unit-abbrev": "%",
    "CMK %inh": 10.45
  },
  {
    "compound": "CO[C@@]1(NC(=O)Cc2cccs2)C(=O)N2C(C(=O)O)=C(COC(N)=O)CS[C@@H]21 [SJ000285599-4, CEFOXITIN SODIUM]",
    "unit-abbrev": "%",
    "CMK %inh": 1.325
  },
  {
    "compound": "Clc1ccc2c(N3CCN(CCCN4CCN(c5ccnc6cc(Cl)ccc56)CC4)CC3)ccnc2c1 [SJ000518980-1, PIPERAQUINE PHOSPHATE]",
    "unit-abbrev": "%",
    "CMK %inh": -2.506
  }
]

* * *

Test system: M07e
Design: species or system AML cell lines (8); Primary HTS, single concentration about 10 uM, Cell Titer Glo viability; log10 luminescence, per cent inhibition relative to cycloheximide control
Conditions: 72 h, relative to cycloheximide control, log10 luminescence; inhibitor
assay-metric: M07e %inh

[
  {
    "compound": "Fc1ccc(-c2ncn(C3CCNCC3)c2-c2ccnc(Oc3ccccc3)n2)cc1 [SJ000573013-1, JB19236-077B1]",
    "assay-metric": "M07e %inh",
    "experimental-value": "0.9358%"
  },
  {
    "compound": "CS(=O)(=O)Nc1cccc(-c2ccc3c(NC(=O)C4CC4)n[nH]c3c2)c1 [SJ000573187-1, VB100064-178A3]",
    "assay-metric": "M07e %inh",
    "experimental-value": "29.33%"
  },
  {
    "compound": "CCOC(=O)c1c(C)[nH]c(/C=C2\\C(=O)Nc3ccccc32)c1C [SJ000773165-1, VEGFR2 KINASE INHIBITOR I]",
    "assay-metric": "M07e %inh",
    "experimental-value": "-1.094%"
  },
  {
    "compound": "CS(=O)(=O)CCNCc1ccc(-c2ccc3ncnc(Nc4ccc(OCc5ccccc5)c(C(F)(F)F)c4)c3c2)o1 [SJ000573124-1, U14859/90/2]",
    "assay-metric": "M07e %inh",
    "experimental-value": "-5.391%"
  },
  {
    "compound": "COC(=O)c1ccc2c(c1)C(=Cc1cc(Br)c(O)c(Br)c1)C(=O)N2 [SJ000573242-1, U8097/138/1]",
    "assay-metric": "M07e %inh",
    "experimental-value": "3.423%"
  },
  {
    "compound": "CS(=O)(=O)CCNCc1nc(-c2ccc3ncnc(Nc4ccc(F)c(Cl)c4)c3c2)cs1 [SJ000573208-1, R2677/150/1]",
    "assay-metric": "M07e %inh",
    "experimental-value": "1.192%"
  },
  {
    "compound": "COC(=O)[C@H](CC(C)C)NC(=O)[C@@H](O)[C@H](N)Cc1ccccc1 [SJ000772416-1, BESTATIN METHYL ESTER]",
    "assay-metric": "M07e %inh",
    "experimental-value": "3.275%"
  },
  {
    "compound": "Cn1cc(C2=C(c3ccc(N)cc3)C(=O)NC2=O)c2ccccc21 [SJ000581160-1]",
    "assay-metric": "M07e %inh",
    "experimental-value": "7.926%"
  },
  {
    "compound": "Cn1cc(C2=C(c3cn(C)c4ncccc34)C(=O)NC2=O)c2ccccc21 [SJ000581101-1]",
    "assay-metric": "M07e %inh",
    "experimental-value": "5.727%"
  },
  {
    "compound": "COc1ccc(CCN=C2NC(=O)/C(=C/c3ccc4ncccc4c3)S2)cc1 [SJ000580998-1]",
    "assay-metric": "M07e %inh",
    "experimental-value": "1.057%"
  },
  {
    "compound": "CC1(C)CC(n2cnc(-c3ccc(F)cc3)c2-c2ccnc(N)n2)CC(C)(C)N1 [SJ000573190-1, JB19236-188C1]",
    "assay-metric": "M07e %inh",
    "experimental-value": "10.18%"
  },
  {
    "compound": "COC(=O)CCC(=O)OC1(C)C(=O)C=C2C=C(C3CC3)N(Cc3ccc(OC)cc3)C=C2C1=O (stereo not drawn) [SJ000579817-1]",
    "assay-metric": "M07e %inh",
    "experimental-value": "4.577%"
  },
  {
    "compound": "CCn1c(-c2nonc2N)nc2ccc(F)cc21 [SJ000573344-1, U17602/50/1]",
    "assay-metric": "M07e %inh",
    "experimental-value": "1.126%"
  },
  {
    "compound": "COc1ccc2ncn(-c3cc(O[C@H](C)c4ccccc4C(F)(F)F)c(C(N)=O)s3)c2c1 [SJ000573322-1, U20814/199/10]",
    "assay-metric": "M07e %inh",
    "experimental-value": "100.1%"
  },
  {
    "compound": "CCOC(=O)C1=C[C@@H](OC(CC)CC)[C@H](NC(C)=O)[C@@H](N)C1 [SJ000555712-1, OSELTAMIVIR PHOSPHATE]",
    "assay-metric": "M07e %inh",
    "experimental-value": "-1.677%"
  },
  {
    "compound": "NC[C@H](CC(=O)O)c1ccc(Cl)cc1 (racemic) [SJ000285686-7]",
    "assay-metric": "M07e %inh",
    "experimental-value": "-0.3712%"
  },
  {
    "compound": "COc1cccc(-n2cnc3c(N/N=C/c4ccncc4)ncnc32)c1 [SJ000573055-1, U17791/62/2]",
    "assay-metric": "M07e %inh",
    "experimental-value": "2.779%"
  },
  {
    "compound": "Cn1cc(C2=C(n3ccc4ccccc43)C(=O)NC2=O)c2ccccc21 [SJ000581055-1]",
    "assay-metric": "M07e %inh",
    "experimental-value": "-0.4303%"
  },
  {
    "compound": "CS(=O)(=O)CCc1cccc(C(=O)c2cnn(-c3ccc(F)cc3)c2N)c1 [SJ000581118-1]",
    "assay-metric": "M07e %inh",
    "experimental-value": "5.628%"
  },
  {
    "compound": "CC(=O)O[C@]1(C(C)=O)CC[C@H]2[C@@H]3C=C(Cl)C4=CC(=O)[C@@H]5C[C@@H]5[C@]4(C)[C@H]3CC[C@@]21C [SJ000286483-6, CYPROTERONE ACETATE]",
    "assay-metric": "M07e %inh",
    "experimental-value": "0.443%"
  },
  {
    "compound": "Cn1c(=O)c(Oc2ccc(F)cc2F)cc2cnc(NC3CCS(=O)(=O)CC3)nc21 [SJ000581062-1]",
    "assay-metric": "M07e %inh",
    "experimental-value": "3.904%"
  },
  {
    "compound": "Nc1nc(-c2ccccn2)c(-c2ccc3ncccc3n2)s1 [SJ000573278-1, FAMP/256/57/4]",
    "assay-metric": "M07e %inh",
    "experimental-value": "0.9531%"
  },
  {
    "compound": "COc1cccc(Nc2nccc(-c3cnn4ncccc34)n2)c1 [SJ000573028-1, U18020/75/1]",
    "assay-metric": "M07e %inh",
    "experimental-value": "96.77%"
  },
  {
    "compound": "CS(=O)(=O)CCNCc1coc(-c2ccc3ncnc(Nc4ccc(OCc5ccccc5)cc4)c3c2)c1 [SJ000573020-1, U12271/135/2]",
    "assay-metric": "M07e %inh",
    "experimental-value": "-2.581%"
  },
  {
    "compound": "O=C1NC(=NCc2ccccc2Cl)S/C1=C\\c1ccc2ncccc2c1 [SJ000581134-1]",
    "assay-metric": "M07e %inh",
    "experimental-value": "4.671%"
  },
  {
    "compound": "Nc1ncnc2occ(-c3ccc(NC(=O)Nc4cc(C(F)(F)F)cc(C(F)(F)F)c4)cc3)c12 [SJ000573331-1, T299/133/15]",
    "assay-metric": "M07e %inh",
    "experimental-value": "1.156%"
  },
  {
    "compound": "N#CCn1c(=O)c(Oc2ccc(F)cc2F)cc2cnc(NC3CCOCC3)nc21 [SJ000581089-1]",
    "assay-metric": "M07e %inh",
    "experimental-value": "5.15%"
  },
  {
    "compound": "CCNC(=O)[C@@H]1CCCN2C(=O)CC[C@H](NC(=O)[C@H](Cc3ccc(OP(=O)(O)O)cc3)NC(C)=O)C(=O)N12 [SJ000581112-1]",
    "assay-metric": "M07e %inh",
    "experimental-value": "4.13%"
  },
  {
    "compound": "Cn1cc(C2=C(Oc3ccccc3)C(=O)NC2=O)c2ccccc21 [SJ000581001-1]",
    "assay-metric": "M07e %inh",
    "experimental-value": "-0.2429%"
  },
  {
    "compound": "COC(=O)/C=C/c1cccc(N(Cc2ccc(-c3ccc(N(C)C)cc3)cc2)C(=O)C2CCCCC2)c1 [SJ000546510-1, FEXARAMINE]",
    "assay-metric": "M07e %inh",
    "experimental-value": "1.611%"
  }
]
